Provenance of the data: PubChem BioAssay (NCI)

System: SW-620 colon
Test: NCI-60 one-dose screen, 48 h
Details: 10 µM unless noted
Description: Growth inhibition of the SW-620 human tumor cell line is measured as a screen for anti-cancer activity. Cells are grown in 96 well plates and exposed to the test compound for 48 hours. Compounds are tested at a single concentration, which is 10^-5 M for most compounds. The reported endpoint is percent growth (GI% or GIPRCNT), where numbers from 0 - 100% represent growth inhibition, and numbers from -100% - 0 represent cell death. For example, a value of 40 represents 60% growth inhibition. […]
This is part of a sample that, as a whole, favours compounds with a hit. Of some 83,000 tested, about 20% had one in any assay. Activity calls are given as the source filed them. The calls were made as follows: active = growth percent below 10; inactive = the rest.
Mark one answer only. Choices: 1 (yes) for active, 0 (no) for inactive

1. O=C1[C@@H]2Cc3c([nH]c4ccccc34)[C@H](c3c(Cl)cccc3Cl)N2C(=O)CN1C1CCN(CC2CCCCC2)CC1	0 (no)
2. COc1ccc(-n2c(SCc3n[nH]c(=S)o3)nc3ccc(Cl)cc3c2=O)cc1	0 (no)
3. C[C@@H]1C[C@H]2C(=O)O[C@@H](C)C(NC(=O)[C@H](Cc3cc(F)cc(F)c3)NC(=O)Nc3ccc(C4CC4)cc3F)C(=O)N3CCC[C@H]3C(=O)N3CCCC[C@H]3C(=O)N[C@@H](CO)C(=O)N2C1 (some centres undefined)	0 (no)
4. C=C=COc1cccc(/C(N)=N/C(N)=N/c2nc3ccccc3s2)c1	0 (no)
5. C#CCn1cccc1CNc1ccc(OC)cc1	1 (yes)
6. COc1cc(/C=N/NC(=O)c2cn(C3CC3)c3c(OC)c(N4CC5CCCNC5C4)c(F)cc3c2=O)ccc1O (centres undefined)	1 (yes)
7. COc1cc(-c2ccc3ncnc(NCc4ccccc4)c3c2)cnc1OC	0 (no)
8. Cc1nc2ncc(-c3ccc4ncnc(NCc5ccccc5)c4c3)cc2[nH]1	0 (no)

QUERY: What was the test verdict on `NC(=O)c1c(NC(=O)c2ccc(F)cc2F)sc2c1CCC(=O)C2` ?
RESULT: 0 (no)

====

Test system: KM12 colon
Experiment: NCI-60 one-dose screen, 48 h (100 = growth as untreated, 0 = no growth, -100 = all killed)
Conditions: 10 µM unless noted
Compounds without any hit were thinned out: in the full panel of roughly 83,000, 20% have a hit.
# strict inequality: growth < 20% yields criterion met, everything else yields criterion not met

1) COc1ccc(-c2nc(C(Cl)Cl)nc3cc(-c4ccccc4)nn23)cc1	criterion met
2) COc1ccc(/C=N/NC2=NC3C(S2)N(C)C(=O)N3C)cc1 (stereo not given)	criterion not met
3) COc1cc2nc(Cl)nc(Nc3cccc(C4=Nc5c(N)nc(N)nc5NC(c5ccccc5)C4)c3)c2cc1OC (stereo not given)	criterion not met
4) N/C(=N\C(N)=N\c1nc2ccccc2s1)c1ccncc1Cl	criterion not met

QUERY: Confirm or reject: growth of `Oc1cccc2ccc(-c3nnc(SCc4ccc(O)c5ncccc45)o3)nc12` lies strictly below 20%
RESULT: criterion met

QUERY: Confirm or reject: growth of O=S(=O)(NC1c2ccccc2C[C@H]1O)c1ccc(Cl)cc1Cl (stereo not given in full) lies strictly below 20%
RESULT: criterion not met

QUERY: Confirm or reject: growth of `NC(N)=Nc1ccc(Oc2cccc(NC(N)=Nc3ccc(Cl)c(C(F)(F)F)c3)c2)cn1` lies strictly below 20%
RESULT: criterion not met

QUERY: Confirm or reject: growth of `O=C(Nc1ccc2c(ccn2Cc2ccccn2)c1)c1ccnnc1` lies strictly below 20%
RESULT: criterion not met

QUERY: Confirm or reject: growth of `CCn1c(SCC(=O)Nc2cccc(C(=O)/C=C/c3ccc(Br)cc3)c2)nc2ccccc2c1=O` lies strictly below 20%
RESULT: criterion not met

QUERY: Confirm or reject: growth of `COc1cc(OC)c(S(N)(=O)=O)cc1C(=O)/C=C/c1ccc(Cl)cc1` lies strictly below 20%
RESULT: criterion met

QUERY: Confirm or reject: growth of `Cn1ccnc1C(=O)/C=C/c1ccc(CNC(=O)c2c(F)c(F)c(F)c(F)c2F)cc1` lies strictly below 20%
RESULT: criterion not met

QUERY: Confirm or reject: growth of O=C(NNc1nc2cc(F)c(F)cc2n2c(CN3CC4CNCC4C3)ccc12)c1cnccn1 (stereo not given) lies strictly below 20%
RESULT: criterion met
